B1: Apolipophorin-3b, P10762 (parent)
chain: MNTLLAVLMLAVAAQARPDAAGHVNIAEAVQQLNHTIVNAAHELHETLGLPTPDEALNLLTEQANAFKTKIAEVTTSLKQEAEKHQGSVAEQLNRFARNLNNSIHDAATSAQPADQLNSLQSALTNVGHQWQTSQPRPSVAQEAWAPVQSALQEAAEKTKEAAANLQNSIQSAVQKPAN

# Variants of: B1
# EXPERIMENTAL CONDITIONS: Locusta migratoria; pH 7.4; 25 °C; GdnHCl; CD; Na2HPO4 KH2PO4 10 mM 2 mM; NaCl 127 mM; reversible: yes; structure 1LS4; whole UniProt chain shown
If the reported denaturant midpoint (higher = more stable) equals or exceeds 0.2 M, assign Satisfied. If not, assign Not satisfied.

# count of solved cases: 3
T47A T159A    Satisfied
A155K    Not satisfied
T159A    Satisfied

Then there is this variant:
State whether the measured denaturant midpoint (higher = more stable) reaches 0.2 M, counting equality as reaching it, for T47A
Satisfied
